Target: T1, Dsn1 (Homo sapiens, UniProt Q9H410 1-356)
T1 construct: Dsn1, subunit of human MIS12C; Subunit within the KMN network cryo-EM sample; residues N-terminal to Arg92 are disordered; source: High-5 insect cells, expressed and purified as part of MIS12C
T1 sequence (looked up): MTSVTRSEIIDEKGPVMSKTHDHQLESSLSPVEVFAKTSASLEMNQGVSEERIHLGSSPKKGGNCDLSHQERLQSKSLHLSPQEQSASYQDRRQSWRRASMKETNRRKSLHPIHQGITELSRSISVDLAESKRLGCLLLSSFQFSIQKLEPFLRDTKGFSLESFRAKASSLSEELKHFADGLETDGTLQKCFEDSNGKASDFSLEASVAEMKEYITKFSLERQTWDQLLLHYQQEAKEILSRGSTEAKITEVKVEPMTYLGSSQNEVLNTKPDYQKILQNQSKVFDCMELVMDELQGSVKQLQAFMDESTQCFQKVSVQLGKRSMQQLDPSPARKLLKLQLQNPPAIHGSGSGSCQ
Assay: cryo-EM structure; NDC80C, MIS12C and KNL1C mixed 1:1:1 and run on Superose 6 in 20 mM HEPES pH 8.0, 80 mM NaCl, 1 mM MgCl2, 1 mM TCEP; about 1 mg/ml on UltrAuFoil grids; 3.0 Å (MIS12C heads 3.8 Å)
Details: both partners purified
value_kind: binding result

binder="Spc25 (natural protein, Homo sapiens, UniProt Q9HBM1 1-224, looked up, Spc25, subunit of human NDC80C; coordinates traced D80–N224; Subunit within the KMN network cryo-EM sample; source: High-5 insect cells, expressed and purified as part of NDC80C) MVEDELALFDKSINEFWNKFKSTDTSCQMAGLRDTYKDSIKAFAEKLSVKLKEEERMVEMFLEYQNQISRQNKLIQEKKDNLLKLIAEVKGKKQELEVLTANIQDLKEEYSRKKETISTANKANAERLKRLQKSADLYKDRLGLEIRKIYGEKLQFIFTNIDPKNPESPFMFSLHLNEARDYEVSDSAPHLEGLAEFQENVRKTNNFSAFLANVRKAFTATVYN" val=binds
binder="Nsl1 (natural protein, Homo sapiens, UniProt Q96IY1 1-281, looked up, Nsl1, subunit of human MIS12C; Subunit within the KMN network cryo-EM sample; source: High-5 insect cells, expressed and purified as part of MIS12C) MAGSPELVVLDPPWDKELAAGTESQALVSATPREDFRVRCTSKRAVTEMLQLCGRFVQKLGDALPEEIREPALRDAQWTFESAVQENISINGQAWQEASDNCFMDSDIKVLEDQFDEIIVDIATKRKQYPRKILECVIKTIKAKQEILKQYHPVVHPLDLKYDPDPAPHMENLKCRGETVAKEISEAMKSLPALIEQGEGFSQVLRMQPVIHLQRIHQEVFSSCHRKPDAKPENFITQIETTPTETASRKTSDMVLKRKQTKDCPQRKWYPLRPKKINLDT" val=binds
binder="Mis12 (natural protein, Homo sapiens, UniProt Q9H081 1-205, looked up, Mis12, subunit of human MIS12C; Subunit within the KMN network cryo-EM sample; source: High-5 insect cells, expressed and purified as part of MIS12C) MSVDPMTYEAQFFGFTPQTCMLRIYIAFQDYLFEVMQAVEQVILKKLDGIPDCDISPVQIRKCTEKFLCFMKGHFDNLFSKMEQLFLQLILRIPSNILLPEDKCKETPYSEEDFQHLQKEIEQLQEKYKTELCTKQALLAELEEQKIVQAKLKQTLTFFDELHNVGRDHGTSDFRESLVSLVQNSRKLQNIRDNVEKESKRLKIS" val=binds
